Test system: 817829-284-R-J1-PDC multi-cell spheroid viability
Assay: Anticancer human tumor 817829-284-R-J1-PDC patient-derived colon adenocarcinoma cell line growth inhibition [PI3K]
Conditions: second compound 0.0316 µM; first compound 0.1 µM; stronger effect = lower value
Exercise: state measured viability, T/C for each of the molecules provided.
Answers are plain numbers, in %.

Example molecules with recorded viability, T/C:
CCN1CCN(Cc2ccc(Nc3ncc(F)c(-c4cc(F)c5nc(C)n(C(C)C)c5c4)n3)nc2)CC1 + COc1c(OCCCN2CCOCC2)ccc2c3n(c(=NC(=O)c4cnc(N)nc4)nc12)CCN3 : 27.9
C#Cc1c(F)ccc2cc(O)cc(-c3ncc4c(N5CC6CCC(C5)N6)nc(OCC56CCCN5CC(F)C6)nc4c3F)c12 (stereo not drawn) + COc1c(OCCCN2CCOCC2)ccc2c3n(c(=NC(=O)c4cnc(N)nc4)nc12)CCN3 : 41.5

viability, T/C recorded for this molecule, CCCS(=O)(=O)Nc1ccc(F)c(C(=O)c2c[nH]c3ncc(-c4ccc(Cl)cc4)cc23)c1F + COc1c(OCCCN2CCOCC2)ccc2c3n(c(=NC(=O)c4cnc(N)nc4)nc12)CCN3 , is 70

* * *

Assign viability, T/C to each entry below.
System: 817829-284-R-J1-PDC multi-cell spheroid viability
Experiment: Anticancer human tumor 817829-284-R-J1-PDC cell line growth inhibition [PI3K];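 also: spheroids exposed to agents for seven days before readout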;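 as to viability, T/C: percent of vehicle DMSO control viability which is 100%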
Conditions: second compound 0.316 µM; first compound 10 µM; stronger effect = lower value
One number for each entry, in %.

// known answers, use as guide
CC1(C)CCC(Nc2ncc(C(F)(F)F)c(-c3c[nH]c4c(P(C)(C)=O)c(C#N)ccc34)n2)CN1 (stereo not drawn) + CC(Nc1ccc2c(c1)OCCn1cc(N3C(=O)OCC3C(F)F)nc1-2)C(N)=O : 1.09
CC(C)NCC(C(=O)N1CCN(c2ncnc3c2C(C)CC3O)CC1)c1ccc(Cl)cc1 (stereo not drawn) + Cc1nc(NC(=O)N2CCCC2C(N)=O)sc1-c1ccnc(C(C)(C)C(F)(F)F)c1 : 11

Entry under test: C[C@@H](NC(=O)c1ncnc(N)c1Cl)c1ncc(C(=O)Nc2cc(C(F)(F)F)c(Cl)cn2)s1 + COc1c(OCCCN2CCOCC2)ccc2c3n(c(=NC(=O)c4cnc(N)nc4)nc12)CCN3 . Its viability, T/C was 16.5

* * *

System: 817829-284-R-J1-PDC multi-cell spheroid viability
Assay: Anticancer human tumor 817829-284-R-J1-PDC cell line growth inhibition [PI3K];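 also: spheroids exposed to agents for seven days before readout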
Details: curve of first compound; second compound 0.0316 µM
Provide the reported pIC50 of each item.
One number for each entry, as −log10 of the molar value.

CC(C)NCC(C(=O)N1CCN(c2ncnc3c2C(C)CC3O)CC1)c1ccc(Cl)cc1 (stereo not drawn) + Cc1nc(NC(=O)N2CCCC2C(N)=O)sc1-c1ccnc(C(C)(C)C(F)(F)F)c1 : 6.60

# ---- query compound ----
Entry under test: CC(C)n1nc(-c2ccc3oc(N)nc3c2)c2c(N)ncnc21 + CC(Nc1ccc2c(c1)OCCn1cc(N3C(=O)OCC3C(F)F)nc1-2)C(N)=O . Its pIC50 was 8.06

* * *

For each of the compounds below, state its viability, T/C.
Test system: 817829-284-R-J1-PDC multi-cell spheroid viability
Assay: Anticancer human tumor 817829-284-R-J1-PDC cell line growth inhibition [PI3K];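 also: spheroids exposed to agents for seven days before readout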;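 as to viability, T/C: percent of vehicle DMSO control viability which is 100%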
Details: second compound 0.316 µM; first compound 0.0316 µM; stronger effect = lower value
Give bare numbers, in %.

Worked examples follow.
C#Cc1c(F)ccc2cc(O)cc(-c3ncc4c(N5CC6CCC(C5)N6)nc(OCC56CCCN5CC(F)C6)nc4c3F)c12 (stereo unspecified) + CC(Nc1ccc2c(c1)OCCn1cc(N3C(=O)OCC3C(F)F)nc1-2)C(N)=O : 53.5
CC(Cn1ccc(-c2ccc(C#N)c(Cl)c2)n1)NC(=O)c1cc(C(C)O)[nH]n1 (stereo unspecified) + CC(Nc1ccc2c(c1)OCCn1cc(N3C(=O)OCC3C(F)F)nc1-2)C(N)=O : 77.1
C#Cc1c(F)ccc2cc(O)cc(-c3ncc4c(N5CC6CCC(C5)N6)nc(OCC56CCCN5CC(F)C6)nc4c3F)c12 (stereo unspecified) + COc1c(OCCCN2CCOCC2)ccc2c3n(c(=NC(=O)c4cnc(N)nc4)nc12)CCN3 : 17.4
CCCS(=O)(=O)Nc1ccc(F)c(C(=O)c2c[nH]c3ncc(-c4ccc(Cl)cc4)cc23)c1F + CC(Nc1ccc2c(c1)OCCn1cc(N3C(=O)OCC3C(F)F)nc1-2)C(N)=O : 43.5
CC(=O)c1c(C)c2cnc(Nc3ccc(N4CCNCC4)cn3)nc2n(C2CCCC2)c1=O + COc1c(OCCCN2CCOCC2)ccc2c3n(c(=NC(=O)c4cnc(N)nc4)nc12)CCN3 : 18.2
Cn1ncc(Cl)c1-c1cc(C(=O)NC(CN)Cc2cccc(F)c2)sc1Cl (stereo unspecified) + COc1c(OCCCN2CCOCC2)ccc2c3n(c(=NC(=O)c4cnc(N)nc4)nc12)CCN3 : 20.2
CC(C)NCC(C(=O)N1CCN(c2ncnc3c2C(C)CC3O)CC1)c1ccc(Cl)cc1 (stereo unspecified) + COc1c(OCCCN2CCOCC2)ccc2c3n(c(=NC(=O)c4cnc(N)nc4)nc12)CCN3 : 20
CC(C)n1nc(-c2ccc3oc(N)nc3c2)c2c(N)ncnc21 + COc1c(OCCCN2CCOCC2)ccc2c3n(c(=NC(=O)c4cnc(N)nc4)nc12)CCN3 : 21.8
CC(=O)c1c(C)c2cnc(Nc3ccc(N4CCNCC4)cn3)nc2n(C2CCCC2)c1=O + Cc1nc(NC(=O)N2CCCC2C(N)=O)sc1-c1ccnc(C(C)(C)C(F)(F)F)c1 : 34.7
CCCS(=O)(=O)Nc1ccc(F)c(C(=O)c2c[nH]c3ncc(-c4ccc(Cl)cc4)cc23)c1F + COc1c(OCCCN2CCOCC2)ccc2c3n(c(=NC(=O)c4cnc(N)nc4)nc12)CCN3 : 21.7

Can you give me viability, T/C for all of these, one by one?
1. CC(Cn1ccc(-c2ccc(C#N)c(Cl)c2)n1)NC(=O)c1cc(C(C)O)[nH]n1 (stereo unspecified) + COc1c(OCCCN2CCOCC2)ccc2c3n(c(=NC(=O)c4cnc(N)nc4)nc12)CCN3
2. Cn1ncnc1[C@H]1c2n[nH]c(=O)c3cc(F)cc(c23)N[C@@H]1c1ccc(F)cc1 + Cc1nc(NC(=O)N2CCCC2C(N)=O)sc1-c1ccnc(C(C)(C)C(F)(F)F)c1
3. CC1(C)CCC(Nc2ncc(C(F)(F)F)c(-c3c[nH]c4c(P(C)(C)=O)c(C#N)ccc34)n2)CN1 (stereo unspecified) + CC(Nc1ccc2c(c1)OCCn1cc(N3C(=O)OCC3C(F)F)nc1-2)C(N)=O
4. C[C@@H](NC(=O)c1ncnc(N)c1Cl)c1ncc(C(=O)Nc2cc(C(F)(F)F)c(Cl)cn2)s1 + Cc1nc(NC(=O)N2CCCC2C(N)=O)sc1-c1ccnc(C(C)(C)C(F)(F)F)c1

1. 20.2
2. 37.2
3. 23.4
4. 79.8

Hi, could you look up viability, T/C for each item in my list?
1. CC1(C)CCC(CN2CCN(c3ccc(C(=O)NS(=O)(=O)c4ccc(NCC5CCOCC5)c([N+](=O)[O-])c4)c(Oc4cnc5[nH]ccc5c4)c3)CC2)=C(c2ccc(Cl)cc2)C1 + CC(Nc1ccc2c(c1)OCCn1cc(N3C(=O)OCC3C(F)F)nc1-2)C(N)=O
2. CCCS(=O)(=O)Nc1ccc(F)c(C(=O)c2c[nH]c3ncc(-c4ccc(Cl)cc4)cc23)c1F + CC(Nc1ncnc2nc[nH]c12)c1cc2cccc(Cl)c2c(=O)n1-c1ccccc1
3. CC(C)n1nc(-c2ccc3oc(N)nc3c2)c2c(N)ncnc21 + CC(Nc1ccc2c(c1)OCCn1cc(N3C(=O)OCC3C(F)F)nc1-2)C(N)=O

1: 45.7; 2: 98.2; 3: 22.2

Go through the list and state viability, T/C for each entry.
1. C=CC(=O)N1CCN(c2nc(=O)n(-c3c(C)ccnc3C(C)C)c3nc(-c4c(O)cccc4F)c(F)cc23)C(C)C1 (stereo unspecified) + CC(Nc1ccc2c(c1)OCCn1cc(N3C(=O)OCC3C(F)F)nc1-2)C(N)=O
2. CC(Cn1ccc(-c2ccc(C#N)c(Cl)c2)n1)NC(=O)c1cc(C(C)O)[nH]n1 (stereo unspecified) + Cc1nc(NC(=O)N2CCCC2C(N)=O)sc1-c1ccnc(C(C)(C)C(F)(F)F)c1

1. 60.1
2. 56.9

I need viability, T/C for every entry listed below, if you could help.
1. Cn1ncnc1[C@H]1c2n[nH]c(=O)c3cc(F)cc(c23)N[C@@H]1c1ccc(F)cc1 + CC(Nc1ccc2c(c1)OCCn1cc(N3C(=O)OCC3C(F)F)nc1-2)C(N)=O
2. Cn1nccc1Nc1nccc(-c2ccn(C(CO)c3ccc(Cl)c(F)c3)c(=O)c2)n1 (stereo unspecified) + Cc1nc(NC(=O)N2CCCC2C(N)=O)sc1-c1ccnc(C(C)(C)C(F)(F)F)c1

[49.8, 87.8]
